System: F1 hybrid maize plants
assay_name: efficacy field trial with segregating F1 hybrid plants
Assay type: in vivo
run_parameters: CTP A; 2,4-D amine 2× at VE-V2 (plus quizalofop-P 0.5×), V4, V8
Description: Ten unique engineered proteins optimized for activity at higher temperatures were selected for maize transformation and analysis in plants. DNA constructs were produced for expressing these engineered proteins with codon usage optimized for monocot expression using methods known to those skilled in the art. Enhancers, promoters, leaders, introns, CTPs, and 3′UTRs were tested in various combinations with the engineered proteins in these DNA constructs. […]

molecule	% Injury from V8 2,4-D [%]
MON-HT8: engineered oxygenase protein, amino acid sequence SEQ ID NO:37 (protein) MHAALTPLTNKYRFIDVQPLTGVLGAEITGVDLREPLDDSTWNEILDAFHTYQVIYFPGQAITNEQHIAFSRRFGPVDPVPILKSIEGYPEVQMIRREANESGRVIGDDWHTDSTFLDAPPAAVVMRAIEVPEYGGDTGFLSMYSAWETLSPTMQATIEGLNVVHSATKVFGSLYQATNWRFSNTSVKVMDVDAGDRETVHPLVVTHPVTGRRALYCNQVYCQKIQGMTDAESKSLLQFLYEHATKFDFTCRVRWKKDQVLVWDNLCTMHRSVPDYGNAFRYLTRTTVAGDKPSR	10
MON-HT5: engineered oxygenase protein, amino acid sequence SEQ ID NO:28 (protein) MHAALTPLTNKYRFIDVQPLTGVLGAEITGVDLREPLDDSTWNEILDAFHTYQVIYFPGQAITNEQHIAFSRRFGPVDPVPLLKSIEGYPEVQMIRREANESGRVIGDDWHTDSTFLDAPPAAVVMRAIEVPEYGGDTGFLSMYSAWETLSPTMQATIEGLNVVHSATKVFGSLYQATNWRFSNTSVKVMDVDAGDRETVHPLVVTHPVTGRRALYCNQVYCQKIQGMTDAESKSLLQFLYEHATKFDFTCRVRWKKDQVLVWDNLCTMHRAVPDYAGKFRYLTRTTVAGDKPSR	17.4
MON-HT3: engineered oxygenase protein, amino acid sequence SEQ ID NO:22 (protein) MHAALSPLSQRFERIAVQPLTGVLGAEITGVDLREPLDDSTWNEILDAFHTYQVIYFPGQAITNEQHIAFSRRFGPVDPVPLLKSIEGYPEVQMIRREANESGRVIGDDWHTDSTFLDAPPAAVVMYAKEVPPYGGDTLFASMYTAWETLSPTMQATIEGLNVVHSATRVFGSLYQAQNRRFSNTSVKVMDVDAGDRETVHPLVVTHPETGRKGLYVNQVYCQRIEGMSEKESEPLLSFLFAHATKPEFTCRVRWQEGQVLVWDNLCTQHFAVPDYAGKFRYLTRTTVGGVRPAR	9.2
